- testedSystem: HLA-A*03:01
- protocolText: IEDB peptide-MHC binding, purified MHC/competitive/radioactivity; filed as Kd, often an IC50 or EC50 that approximates it; bounds were set here for any values at or beyond the usual limits of such assays
- measurementSetup: source organism: Mammarenavirus machupoense
pKd: −log10 of the molar value.
parameterMeasured: pKd

Exercise: Lookup: pKd / HLA-A*03:01 / EKFGHLCKYH
Key: ≤ 4.15

====

- testedSystem: HLA-A*11:01
- protocolText: IEDB peptide-MHC binding, purified MHC/direct/fluorescence; filed as Kd, often an IC50 or EC50 that approximates it; bounds were set here for any values at or beyond the usual limits of such assays
- measurementSetup: source organism: Zaire ebolavirus
parameterMeasured: Kd

Exercise: Which Kd reading was recorded for the sequence YDRLASTVI ?
Key: ≥ 20 µM

====

pKd for assorted sequences
- testedSystem: HLA-B*27:05
- protocolText: IEDB peptide-MHC binding, purified MHC/direct/fluorescence; filed as Kd, often an IC50 or EC50 that approximates it; bounds were set here for any values at or beyond the usual limits of such assays
- measurementSetup: source organism: Zaire ebolavirus
pKd: −log10 of the molar value.

Exercise: So what does the record say about pKd for GHMMVIFRL ?
Key: ≤ 4.70

Please find the next sequence below.
Exercise: pKd lookup needed for YDRLASTVI , thanks.
Key: ≤ 4.70

====

- testedSystem: HLA-A*01:01
- protocolText: IEDB peptide-MHC binding, purified MHC/competitive/radioactivity; filed as Kd, often an IC50 or EC50 that approximates it; bounds were set here for any values at or beyond the usual limits of such assays
- measurementSetup: source organism: Mammarenavirus brazilense
parameterMeasured: pKd
// scale note: pKd = -log10(conc_M); give the bare number

Exercise: What does the data say about its pKd? Entry: TADDITMGY
Key: 7.73

====

- testedSystem: HLA-B*35:01
- protocolText: IEDB peptide-MHC binding, purified MHC/competitive/fluorescence; filed as Kd, often an IC50 or EC50 that approximates it; bounds were set here for any values at or beyond the usual limits of such assays
- measurementSetup: source organism: Horsepox virus
parameterMeasured: Kd (nM)
Write down the numeric answer in nM and omit the unit.

Exercise: Please give the measured Kd for this sequence: LLRDKDGVY
Key: 67.7

====

- testedSystem: HLA-B*44:02
- protocolText: IEDB peptide-MHC binding, purified MHC/competitive/radioactivity; filed as Kd, often an IC50 or EC50 that approximates it; bounds were set here for any values at or beyond the usual limits of such assays
- measurementSetup: source organism: Lymphocytic choriomeningitis virus (strain Armstrong)
parameterMeasured: Kd (nM)
Number in nM, nothing else.

Exercise: # query: Kd of entry NDLQFGFGW
Key: 295

====

- testedSystem: HLA-A*68:23
- protocolText: IEDB peptide-MHC binding, purified MHC/competitive/fluorescence; filed as Kd, often an IC50 or EC50 that approximates it; bounds were set here for any values at or beyond the usual limits of such assays
- measurementSetup: source organism: Mus musculus
parameterMeasured: pKd
Note on pKd: it is the negative log10 of concentration, concentration in mol/L.

Exercise: Report pKd for GVPKTHLEL please.
Key: 7.64

====

- testedSystem: HLA-B*15:01
- protocolText: IEDB peptide-MHC binding, purified MHC/direct/fluorescence; filed as Kd, often an IC50 or EC50 that approximates it; bounds were set here for any values at or beyond the usual limits of such assays
- measurementSetup: source organism: Yellow fever virus 17D
pKd: −log10 of the molar value.
parameterMeasured: pKd

Exercise: State the recorded pKd for this entry: VRGGMVAPL
Key: ≤ 4.70

====

- testedSystem: HLA-B*53:01
- protocolText: IEDB peptide-MHC binding, purified MHC/competitive/radioactivity; filed as Kd, often an IC50 or EC50 that approximates it; bounds were set here for any values at or beyond the usual limits of such assays
- measurementSetup: source organism: Dengue virus 4 Philippines/H241/1956
pKd: −log10 of the molar value.
Kind request: treat 7 as inclusive, so pKd at 7 or higher is y, anything lower is n.

These solved cases illustrate the format of a correct answer.
Exercise: Is reported pKd greater than or equal to 7 here: LATGPVLTLW
Key: y

Exercise: Reported pKd at or above 7? EAVNDSRFW
Key: y

Further cases:
Exercise: Hello, I need to know if TPEGIIPTLF has measured pKd not below 7. Thanks!
Key: y

Exercise: State whether the measured pKd reaches 7, counting equality as reaching it, for YVILTILTII
Key: n

Exercise: Answer whether pKd of FVIDNVHTW is greater than or equal to 7.
Key: y

====

- testedSystem: HLA-A*25:01
- protocolText: IEDB peptide-MHC binding, purified MHC/competitive/fluorescence; filed as Kd, often an IC50 or EC50 that approximates it; bounds were set here for any values at or beyond the usual limits of such assays
- measurementSetup: source organism: Zaire ebolavirus
parameterMeasured: Kd

Exercise: // lookup Kd for SLTDRELLL
Key: ≥ 20 µM

====

- testedSystem: HLA-A*03:01
- protocolText: IEDB peptide-MHC binding, purified MHC/competitive/radioactivity; filed as Kd, often an IC50 or EC50 that approximates it; bounds were set here for any values at or beyond the usual limits of such assays
- measurementSetup: source organism: SARS coronavirus Tor2
parameterMeasured: Kd
Please answer in the form of a number followed by its unit of measurement.

Exercise: Quick check: Kd of TQWSLFFFVY ?
Key: 2510 nM

Exercise: What value of Kd has been recorded for this entry: TSTGNYNYK
Key: 1460 nM

Exercise: Could you share which Kd value was measured for RLCLFDRYFK ?
Key: 23.8 nM

Next sequence, Kd to be filled in.
Exercise: # get_value(readout='Kd', item= DFAVSKGFFK )
Key: 768 nM

====

- testedSystem: HLA-A*02:11
- protocolText: IEDB peptide-MHC binding, purified MHC/direct/fluorescence; filed as Kd, often an IC50 or EC50 that approximates it; bounds were set here for any values at or beyond the usual limits of such assays
- measurementSetup: source organism: Choclo virus
parameterMeasured: Kd

Exercise: Consider the sequence KACDLAMCY and give its measured Kd.
Key: ≥ 20 µM

====

- testedSystem: HLA-B*15:01
- protocolText: IEDB peptide-MHC binding, purified MHC/competitive/radioactivity; filed as Kd, often an IC50 or EC50 that approximates it; bounds were set here for any values at or beyond the usual limits of such assays
- measurementSetup: source organism: Dengue virus 1 Nauru/West Pac/1974
parameterMeasured: Kd (µM)
Value expressed in µM; do not type the unit.

Exercise: Any idea what Kd was measured for MMLKLLTDF ?
Key: 0.0115

====

Listing of entries alongside the reported IC50.
- testedSystem: HLA-A*02:01
- protocolText: IEDB peptide-MHC binding, purified MHC/competitive/fluorescence; bounds were set here for any values at or beyond the usual limits of such assays
- measurementSetup: source organism: Zaire ebolavirus
The reply should contain only the number, in µM.

Past entries and their recorded results:
Exercise: Can you share its IC50? I mean this sequence: MVTLRKERL
Key: 18.8

Exercise: Returns the measured IC50 for the input sequence. Input: KKILMNFHQ
Key: 63.4

Exercise: // query IC50 value for entry AGPPKAENT
Key: 66.6

Exercise: Which value of IC50 has been reported for NVPGPHRTI in the records?
Key: 16

Exercise: Quick check: IC50 of GHMMVIFRL ?
Key: 0.205

***
Exercise: Looking for the measured IC50 of AVSHLTTLA , can you help?
Key: 3.08

Exercise: Report IC50 for LAWIPYFGP please.
Key: 17.8

Exercise: Sample MHNQDGLIC — what was its IC50?
Key: 2.34

Exercise: Need IC50 of MNEENRFVT , thanks.
Key: 41.1

====

- testedSystem: HLA-B*48:01
- protocolText: IEDB peptide-MHC binding, purified MHC/direct/fluorescence; filed as Kd, often an IC50 or EC50 that approximates it; bounds were set here for any values at or beyond the usual limits of such assays
- measurementSetup: source organism: Bacillus anthracis
parameterMeasured: Kd

Exercise: GET /values?readout=Kd&item= KLYVNGKAY
Key: ≥ 20 µM

====

- testedSystem: HLA-A*30:02
- protocolText: IEDB peptide-MHC binding, purified MHC/competitive/radioactivity; filed as Kd, often an IC50 or EC50 that approximates it; bounds were set here for any values at or beyond the usual limits of such assays
- measurementSetup: source organism: Mammarenavirus mopeiaense
pKd: −log10 of the molar value.
parameterMeasured: pKd

Exercise: Any idea what pKd was measured for PYIASRTSIV ?
Key: ≤ 4.43

====

- testedSystem: HLA-B*44:02
- protocolText: IEDB peptide-MHC binding, purified MHC/direct/fluorescence; filed as Kd, often an IC50 or EC50 that approximates it; bounds were set here for any values at or beyond the usual limits of such assays
- measurementSetup: source organism: Coxiella burnetii
parameterMeasured: Kd

Exercise: Kd lookup needed for YMHGSIHEV , thanks.
Key: ≥ 20 µM

Data origin, for the record: the Immune Epitope Database (IEDB)
